- System: Saccharomyces cerevisiae BY4741 SeMeCo community
- Assay overview: z-score of subpopulation abundance vs DMSO median, subpopulation auxotrophic for HLUM; higher = larger share of this subpopulation than in DMSO controls
- Setup conditions: 10 µM; 24 h; SM minimal medium; subpopulation (auxotrophy): HLUM
Structures can show the parent of a compound that is named as a salt.
Measured property: z-score of subpopulation abundance
Would you mind answering with just the numeric figure?

Consider the following illustrative entries.
compound="CN[C@H](CC(C)C)C(=O)N[C@H]1C(=O)N[C@@H](CC(N)=O)C(=O)N[C@H]2C(=O)N[C@H]3C(=O)N[C@H](C(=O)N[C@H](C(=O)O)c4cc(O)cc(O)c4-c4cc3ccc4O)[C@H](O)c3ccc(c(Cl)c3)Oc3cc2cc(c3O[C@@H]2O[C@H](CO)[C@@H](O)[C@H](O)[C@H]2O[C@H]2C[C@](C)(N)[C@H](O)[C@H](C)O2)Oc2ccc(cc2Cl)[C@H]1O [Vancomycin HCl]" readout_number=-0.53
compound="NC12CC3CC(CC(C3)C1)C2 [Amantadine HCl]" readout_number=-0.01
compound="CC(=O)O[C@]1(C(C)=O)CC[C@H]2[C@@H]3C[C@H](C)C4=CC(=O)CC[C@]4(C)[C@H]3CC[C@@]21C [Medroxyprogesterone acetate]" readout_number=-0.36
compound="O=C(O)CCc1nc(-c2ccccc2)c(-c2ccccc2)o1 [Oxaprozin]" readout_number=-0.44

Qu. Could you share what z-score of subpopulation abundance was measured for CNS(=O)(=O)CCc1ccc2[nH]cc(C3CCN(C)CC3)c2c1 [Naratriptan HCl] , tested on Saccharomyces cerevisiae BY4741 SeMeCo community?
Ans. -0.77

Qu. Could you share what z-score of subpopulation abundance was measured for CCc1nn(CCCN2CCN(c3cccc(Cl)c3)CC2)c(=O)n1CCOc1ccccc1 [Nefazodone hydrochloride] , tested on Saccharomyces cerevisiae BY4741 SeMeCo community?
Ans. 0.44

Qu. Could you share what z-score of subpopulation abundance was measured for CCN(CC)CCOc1ccc2c(c1)C(=O)c1cc(OCCN(CC)CC)ccc1-2 [Tilorone dihydrochloride] , tested on Saccharomyces cerevisiae BY4741 SeMeCo community?
Ans. -0.11

Qu. Could you share what z-score of subpopulation abundance was measured for CO/N=C(\C(=O)N[C@@H]1C(=O)N2C(C(=O)O)=CCS[C@H]12)c1csc(N)n1 [Ceftizoxime sodium] , tested on Saccharomyces cerevisiae BY4741 SeMeCo community?
Ans. -0.48

Qu. Could you share what z-score of subpopulation abundance was measured for CC1(C)S[C@@H]2[C@H](NC(=O)[C@H](N)c3ccc(O)cc3)C(=O)N2[C@H]1C(=O)O [Amoxicillin trihydrate] , tested on Saccharomyces cerevisiae BY4741 SeMeCo community?
Ans. -0.21

Qu. Could you share what z-score of subpopulation abundance was measured for CC(C)(C)C1CCC(CC2=C(O)c3ccccc3C(=O)C2=O)CC1 (centres undefined) [Buparvaquone] , tested on Saccharomyces cerevisiae BY4741 SeMeCo community?
Ans. 0.04

Qu. Could you share what z-score of subpopulation abundance was measured for CNC1CCCN(c2c(F)cc3c(=O)c(C(=O)O)cn(C4CC4)c3c2OC)C1 (centres undefined) [Balofloxacin] , tested on Saccharomyces cerevisiae BY4741 SeMeCo community?
Ans. -0.35

Qu. Could you share what z-score of subpopulation abundance was measured for C#C[C@]1(O)CC[C@H]2[C@@H]3CCC4=CC(=O)CC[C@@H]4[C@H]3C(=C)C[C@@]21CC [Etonogestrel] , tested on Saccharomyces cerevisiae BY4741 SeMeCo community?
Ans. -0.23

Qu. Could you share what z-score of subpopulation abundance was measured for CN1[C@@H](CC(=O)c2ccccc2)CCC[C@H]1C[C@H](O)c1ccccc1 [Lobeline hydrochloride] , tested on Saccharomyces cerevisiae BY4741 SeMeCo community?
Ans. 0.01

Qu. Could you share what z-score of subpopulation abundance was measured for O=C(O)c1cn(-c2ccc(F)cc2)c2cc(N3CCNCC3)c(F)cc2c1=O [Sarafloxacin HCl] , tested on Saccharomyces cerevisiae BY4741 SeMeCo community?
Ans. -0.29
